Molecular target: Tyrosine-protein phosphatase non-receptor type 1 (Homo sapiens) (UniProt P18031)
Sequence (P18031 whole entry): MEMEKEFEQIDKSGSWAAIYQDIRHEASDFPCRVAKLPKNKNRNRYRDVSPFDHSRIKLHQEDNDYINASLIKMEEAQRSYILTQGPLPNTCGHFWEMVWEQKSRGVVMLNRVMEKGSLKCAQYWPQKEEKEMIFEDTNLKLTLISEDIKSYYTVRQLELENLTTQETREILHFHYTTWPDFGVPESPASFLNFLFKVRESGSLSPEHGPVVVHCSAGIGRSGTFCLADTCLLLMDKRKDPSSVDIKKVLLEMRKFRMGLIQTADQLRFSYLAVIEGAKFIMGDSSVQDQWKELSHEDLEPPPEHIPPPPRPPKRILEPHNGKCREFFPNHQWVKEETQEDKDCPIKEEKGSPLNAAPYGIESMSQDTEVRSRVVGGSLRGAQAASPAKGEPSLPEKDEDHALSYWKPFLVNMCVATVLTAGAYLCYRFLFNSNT
Assay: Inhibition of human recombinant GST-tagged PTP1B using para-nitrophenyl phosphate as substrate assessed as release of para-nitrophenol at 10 uM after 10 mins by spectrophotometric analysis
Active and inactive are the calls of the source. The rule behind the calls is not given here.
attribute.measured: inhibition

For the compound CO[C@@H]1[C@@H]2[C@H](CC[C@@]3(C)[C@H](O)[C@H]4[C@@H](OC(=O)/C=C/c5ccccc5)[C@@H](C)C[C@]4(O)C(=O)[C@@]13C)C2(C)C , give its reported inhibition.
inactive

Specify inhibition for C[C@H]1C[C@]2(O)C(=O)[C@@]3(C)[C@@H]4O[C@H]4C(C)(C)[C@@H](O)CC[C@@]3(C)[C@H](O)[C@H]2[C@H]1OC(=O)c1ccccc1 and stop.
inactive

Report inhibition, nothing else, for this compound: C[C@H]1C[C@]2(O)C(=O)[C@@]3(C)[C@H](O)[C@@H]4[C@H](CC[C@@]3(C)[C@H](O)[C@H]2[C@H]1OC(=O)/C=C/c1ccccc1)C4(C)C
inactive
